meta.source: PubChem BioAssay AID2696

For each entry below, report its IC50 value.
biological target: UniProt Q61143; experiment: TRPC6 inhibitor potency, dose response, cell-based, mouse TRPC6, HEK293, membrane potential (AID 2696); settings: TRPC6-expressing HEK293 cells, membrane potential dye fluorescence, acetylcholine-stimulated
Sequence (Q61143 whole entry, looked up): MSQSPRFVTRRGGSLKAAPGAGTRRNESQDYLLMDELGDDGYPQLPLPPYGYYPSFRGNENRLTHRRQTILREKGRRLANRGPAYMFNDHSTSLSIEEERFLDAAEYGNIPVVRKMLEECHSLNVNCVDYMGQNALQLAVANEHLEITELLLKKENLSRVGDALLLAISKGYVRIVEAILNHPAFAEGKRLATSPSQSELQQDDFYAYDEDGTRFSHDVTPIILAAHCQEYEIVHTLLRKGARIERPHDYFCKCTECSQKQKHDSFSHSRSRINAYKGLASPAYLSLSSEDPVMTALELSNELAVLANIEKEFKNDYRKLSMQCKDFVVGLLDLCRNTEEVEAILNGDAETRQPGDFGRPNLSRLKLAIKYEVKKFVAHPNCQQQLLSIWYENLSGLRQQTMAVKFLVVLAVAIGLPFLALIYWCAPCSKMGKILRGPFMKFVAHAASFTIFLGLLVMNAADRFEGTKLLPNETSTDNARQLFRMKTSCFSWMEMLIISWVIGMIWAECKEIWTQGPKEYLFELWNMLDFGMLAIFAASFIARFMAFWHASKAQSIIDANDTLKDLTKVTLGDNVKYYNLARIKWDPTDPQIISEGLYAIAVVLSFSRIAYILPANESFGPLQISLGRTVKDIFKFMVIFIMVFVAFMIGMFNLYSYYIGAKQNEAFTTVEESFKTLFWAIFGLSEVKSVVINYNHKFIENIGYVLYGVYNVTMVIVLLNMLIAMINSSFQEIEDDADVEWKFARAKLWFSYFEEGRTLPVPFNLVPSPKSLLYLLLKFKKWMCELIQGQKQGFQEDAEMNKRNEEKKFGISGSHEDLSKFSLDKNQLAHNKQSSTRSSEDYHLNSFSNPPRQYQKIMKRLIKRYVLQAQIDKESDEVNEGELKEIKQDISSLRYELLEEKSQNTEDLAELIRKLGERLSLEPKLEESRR

## Input # get_value(readout='IC50', item= O=C1Nc2ccccc2OC1CC(=O)N1CCN(c2cccc(C(F)(F)F)c2)CC1 (stereo not drawn) )
## Output 79.4 µM

## Input Looking for the measured IC50 of CCN(CC)CCCOC(=O)C(OC(C)C)(c1ccccc1)c1ccccc1 , can you help?
## Output 3.98 µM

## Input Which IC50 is reported for this compound? CN(C)C(C)(C)/C=C/C(O)(c1ccccc1)c1ccccc1
## Output 17.8 µM

## Input IC50 for CC(NC(=O)Nc1nnc(C(F)(F)F)s1)(C(F)(F)F)C(F)(F)F ?
## Output 22.4 µM

## Input Value lookup for IC50; key = CC(C)CC1CCCCC1OC(=O)C[N+]1(C)CCCCC1 (stereo not drawn)
## Output 15.8 µM

## Input Given the compound Cc1cc(C)c2nc(C)cc(Nc3ccc(C(=O)NCCO)cc3)c2c1 , what is its reported IC50?
## Output 44.7 µM

## Input Given the entry CC(C)c1ccc(N2C(=O)CC(Sc3nc4ccccc4o3)C2=O)cc1 (stereo not drawn) , report its measured IC50.
## Output 44.7 µM

## Input Reported IC50, compound Cc1ccc(C23CC4CC(CC(CN)(C4)C2)C3)cc1 : ____
## Output 39.8 µM

## Input Quick one: IC50 for Cc1nnc(-c2ccccc2)c(=O)n1/N=C/c1c(O)ccc2ccccc12 ?
## Output 79.4 µM

## Input Would you mind telling me what IC50 value was observed for O=C(NC(Nc1ncc(S(=O)(=O)c2ccc([N+](=O)[O-])cc2)s1)(C(F)(F)F)C(F)(F)F)c1ccc(Cl)cc1 ?
## Output 44.7 µM

## Input What value of IC50 has been reported for the following compound? CCN(CC)CCNC(=O)c1ccc(NC(=O)c2cccc(S(=O)(=O)Nc3ccc(C)cc3)c2)cc1
## Output 31.6 µM

## Input Tell me the measured IC50 of CN(C)CCC(=O)N1c2ccccc2Sc2ccc(Cl)cc21 , please.
## Output 8.91 µM

## Input Fill in the blank: the reported IC50 of Cc1ccc(Oc2ccc(NC(=O)Cn3ccsc3=N)cc2)cc1 is ____.
## Output 70.8 µM

## Input What IC50 value was documented for this compound, CN(C)CCNc1c2c(c(C#N)c3nc4ccccc4n13)CCCC2 ?
## Output 79.4 µM

## Input Quick one: IC50 of COc1ccccc1-n1c(-c2ccccc2)c[n+]2c1CCc1ccccc1-2 ?
## Output 19.9 µM

## Input GET /values?readout=IC50&item= CC[n+]1c(/C=C/Nc2ccccc2)sc2ccccc21
## Output 79.4 µM

## Input Suppose we examine the compound CCN(CC)CCn1c(=N)n(CCOc2ccccc2)c2ccccc21 ; what IC50 value has been reported?
## Output 35.5 µM

## Input Data request, read-out IC50, for Cc1ccc(C(O)(CCN2CCCCC2)c2ccccc2)cc1 (stereo not drawn)
## Output 19.9 µM

## Input What value of IC50 has been reported for the following compound? O=C1c2cccc3cccc(c23)C(=O)N1CC1CCN(CC(O)COCc2ccc3c(c2)OCO3)CC1 (stereo not drawn)
## Output 50.1 µM

## Input Could you share which IC50 value was measured for CN1CCC(OC(c2ccccc2)c2ccccc2)CC1 ?
## Output 15.8 µM

## Input For the compound shown here, CCCN(CC1CC1)C(=O)CCc1nnc(CCc2c[nH]c3ccccc23)o1 , give the reported IC50.
## Output 50.1 µM

## Input Entry CCN(CC)CCSc1nnc2c3ccccc3n(Cc3ccccc3)c2n1 has what IC50?
## Output 44.7 µM

## Input Item OC(C#CCCN1CCCCC1)(c1ccccc1)C1CCCCC1 (stereo not drawn) has what recorded IC50?
## Output 3.55 µM
